Test system: human promyelocytic leukemia (HL-60)
Experiment: Growth inhibition of human cell line HL-60
Details: 30 μM
Reported Cell Toxicity HL60, % at 30 μM values are given for each entry in this list.
MEASUREMENT_KIND: Cell Toxicity HL60, % at 30 μM

{"MOLECULE": "Nc1ncnc2c1c(-c1ccc3cc(O)ccc3c1)nn2CC1CCNCC1 [Compound 119]", "TESTED_SYSTEM": "human promyelocytic leukemia (HL-60)", "RESULT": "<30% at 30 μM"}
{"MOLECULE": "Nc1ncnc2c1c(-c1ccc3ccccc3c1)nn2CC1CCNCC1 [Compound 147]", "TESTED_SYSTEM": "human promyelocytic leukemia (HL-60)", "RESULT": "60% at 30 μM;"}
{"MOLECULE": "COc1ccc2cc(-c3nn(CC4CCNCC4)c4ncnc(N)c34)ccc2c1 [Compound 28]", "TESTED_SYSTEM": "human promyelocytic leukemia (HL-60)", "RESULT": "<30% at 30 μM"}
{"MOLECULE": "CCOc1ccc2cc(-c3nn(CC4CCN(C)CC4)c4ncnc(N)c34)ccc2c1 [Compound 150]", "TESTED_SYSTEM": "human promyelocytic leukemia (HL-60)", "RESULT": "<30% at 30 μM"}
{"MOLECULE": "Nc1ncnc2c1c(-c1ccc3nccnc3c1)nn2CC1CCNCC1 [Compound 122]", "TESTED_SYSTEM": "human promyelocytic leukemia (HL-60)", "RESULT": "<30% at 30 μM"}
{"MOLECULE": "CCOc1ccc2cc(-c3nn(C4CCN(CC)CC4)c4ncnc(N)c34)ccc2c1 [Compound 149]", "TESTED_SYSTEM": "human promyelocytic leukemia (HL-60)", "RESULT": "<30% at 30 μM"}
{"MOLECULE": "CC(C)(C)n1nc(-c2ccc3ccccc3c2)c2c(N)ncnc21 [Compound 2]", "TESTED_SYSTEM": "human promyelocytic leukemia (HL-60)", "RESULT": "<30% at 30 μM"}
{"MOLECULE": "Cc1cccc2[nH]c(-c3nc(C(C)(C)C)n4ccnc(N)c34)cc12 [Compound 83]", "TESTED_SYSTEM": "human promyelocytic leukemia (HL-60)", "RESULT": "38% at 30 μM"}
{"MOLECULE": "CCOc1ccc2cc(-c3nn(C4CCN(C)CC4)c4ncnc(N)c34)ccc2c1 [Compound 148]", "TESTED_SYSTEM": "human promyelocytic leukemia (HL-60)", "RESULT": "49% at 30 μM;"}
{"MOLECULE": "Nc1ncnc2c1c(-c1ccc3cc(OCc4cccc(Cl)c4)ccc3c1)nn2CC1CCNCC1 [Compound 38]", "TESTED_SYSTEM": "human promyelocytic leukemia (HL-60)", "RESULT": "98% at 30 μM"}
{"MOLECULE": "Nc1ncnc2c1c(-c1cnc3ccccc3c1)nn2CC1CCNCC1 [Compound 30]", "TESTED_SYSTEM": "human promyelocytic leukemia (HL-60)", "RESULT": "<30% at 30 μM"}
{"MOLECULE": "Nc1ncnc2c1c(Cc1cccc3ccccc13)nn2CCC1CCNCC1 [Compound 5i]", "TESTED_SYSTEM": "human promyelocytic leukemia (HL-60)", "RESULT": "<30% at 30 μM"}
{"MOLECULE": "CC(C)(C)c1nc(-c2ccc3ccccc3c2)c2c(N)nccn12 [Compound 84]", "TESTED_SYSTEM": "human promyelocytic leukemia (HL-60)", "RESULT": "50% at 30 μM"}

Hey, just so you know, these numbers are from patent US9765037B2.
